Kindly state GI50 for each of the entries shown.
# Test system: U-251
# METHOD_NOTES: NCI tumour cell line growth inhibition, 48 h
Activity calls are given as the source filed them. Cut-off read from the data, not from the text of the source: active = GI50 up to about 1.1 µM and inactive = higher.

Lookup result for CCOC(=O)C(=Cc1[nH]c2ccccc2c1-c1c[nH]c2ccccc12)C(=O)OCC ; measured GI50: 11.7 µM (inactive)

GI50 measured on O=C(CCCN1CCC2(CC1)CC(=O)N(N1CCCCCC1)C2=O)c1ccccc1 = > 100 µM (inactive)

GI50 recorded for this compound, O=C(N(O)c1ccccc1Cl)C(O)(c1ccccc1)c1ccccc1 , is 40.6 µM (inactive)

GI50 measured on COCN1C(=O)C2CC(/C=C/C(N)=O)=CN2C(=O)c2ccccc21 (stereo unspecified) = > 100 µM (inactive)

GET /value?item= NCCCNCCS [WR-1065] &field=GI50 returns > 100 µM (inactive)

// CO[C@@](c1ccccc1)(c1nc(C#N)c(N)o1)C(F)(F)F : GI50 value = > 100 µM (inactive)
